- Protocol text: Cytotoxicity assay
- Format: cell-based
- Experimental parameters: human, MCF-7 breast carcinoma cells
Property measured: IC50 at 72 h
Lab note: write values as number then unit, every time.

Fill in the blank: the reported IC50 at 72 h of CC[C@@]1(O)C(=O)OCc2c1cc1n(c2=O)Cc2cc3ccccc3nc2-1 is ____.
130 nM

###

- Protocol text: Cytotoxicity assay
- Format: cell-based
- Experimental parameters: human, SF-268 astrocytoma cells
Property measured: IC50 at 72 h

Fill in the blank: the reported IC50 at 72 h of CC[C@@]1(O)C(=O)OCc2c1cc1n(c2=O)Cc2cc3ccccc3nc2-1 is ____.
10 nM
